system: T1, human galectin-10-His (human)
T1 construct: The last M of the tag may be Met1 of galectin-10; also called humanGal10-His; hGal10
T1 chain: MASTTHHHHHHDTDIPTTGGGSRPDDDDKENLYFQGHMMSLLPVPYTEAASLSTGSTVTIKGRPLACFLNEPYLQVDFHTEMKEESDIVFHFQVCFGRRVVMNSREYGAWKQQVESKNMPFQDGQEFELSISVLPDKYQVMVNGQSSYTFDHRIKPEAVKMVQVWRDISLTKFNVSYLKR
assay_overview: ELISA, coated antigen 0.5 ug/mL
metric: pEC50
Remember the convention: pEC50 equals -log10 of concentration in molar.

Consider the binder 11F12 mouse IgG1 (antibody, V domains shown, VH and VL cloned in frame with mouse IgG1 constant domains; also called 11F12 mIgG1) VH: QVQLQESGGGLVQPGGSLRLSCAASGFTFSTNYMNWVRQAPGKGLEWVSGITSGGGRTYYADSVKGRFTISRDNAKNTLYLQMNSLKPEDTALYYCARTDHAWLDAWGQGTLVTVSS VL: HSAVTQPPSVSGTLGKTVTISCAGTSSDVGYGNYVSWYQHLPGTAPKLLIYAVSTRASGVPDRFSGSKSGNTASLTISGLQSEDEGDYYCASYSVRNNVVFGGGTRLTVL . State its measured pEC50. 8.32

Consider the binder 11F02 mouse IgG1 (antibody, V domains shown, VH and VL cloned in frame with mouse IgG1 constant domains; also called 11F02 mIgG1) VH: ELQVVESGGGLVQPGGSLRLSCAASGFTFSTNYMNWVRQAPGKGLEWVSGITSHGARTYYADSVKGRFTISRDNSKNTLYLQMNSLKPEDTALYYCARTDHASLDAWGQGTLVTVSS VL: QTVVTQEPSLSVSPGGTVTLTCGLSSGSVTSSNYPGWYQQKPGQAPRTLIYNTNSRYSGVPNRFSGSISGNKAALTITGAQPEDEADYYCALYMGSSSYNTVFGGGTHLTVL . State its measured pEC50. 8.51

Consider the binder 10B02 mouse IgG1 (antibody, V domains shown, VH and VL cloned in frame with mouse IgG1 constant domains; also called 10B02 mIgG1) VH: QVQLVESGGGLVQPGGSLRVSCAASGFTFSYHYMNWVRQAPGKGLEWVSGISAGGGRTYYADSVKGRFTISRDNAKNTLYLQMNSLNAEDTALYYCARVHGITNDYWGQGTQVTVSS VL: QSALTQPPSVSGSPGKTVTISCAGTSSDVGYGNYVSWYQQLPGMAPKLLIYEVNKRASGITDRFSGSKSGNTAFLTISGLQSEDEADYYCASYRNSNNWVFGGGTHLTVL . State its measured pEC50. 8.64

Consider the binder 1D11 mouse IgG1 (antibody, V domains shown, Llama VH and VL on mouse IgG1 heavy chain constant domains (CH1-CH2-CH3) and mouse lambda light chain constant domain; also called 1D011; 1D11 mIgG1) VH: QVQLVESGGGLVQPGGSLRLSCAASGFTFDDYAMSWVRQAPGKGLEWVSGISWNGGSTYYAESMKGRFTISRDNAKNTLYLQMNSLKSEDTAVYYCAKDRNLGYRLGYPYDYWGQGTQVTVSS VL: QSVLTQPPSVSGSPGETVTISCAGTSSDVGYGNYVSWYQQLPGMAPRLLIYEVNKRASGITDRFSGSKSGNTASLTISGLQSEDEGDYYCASYRSSNNAVFGGGTHLTVL . State its measured pEC50. 10.00
